# system-name: glucocerebrosidase (Gcase) (Homo sapiens, UniProt P04062)
# Construct: micellar solution containing 10 nM GCase and 100 nM saposin C (Enzo ALX-201-262-C050)
# Sequence (P04062 40-536): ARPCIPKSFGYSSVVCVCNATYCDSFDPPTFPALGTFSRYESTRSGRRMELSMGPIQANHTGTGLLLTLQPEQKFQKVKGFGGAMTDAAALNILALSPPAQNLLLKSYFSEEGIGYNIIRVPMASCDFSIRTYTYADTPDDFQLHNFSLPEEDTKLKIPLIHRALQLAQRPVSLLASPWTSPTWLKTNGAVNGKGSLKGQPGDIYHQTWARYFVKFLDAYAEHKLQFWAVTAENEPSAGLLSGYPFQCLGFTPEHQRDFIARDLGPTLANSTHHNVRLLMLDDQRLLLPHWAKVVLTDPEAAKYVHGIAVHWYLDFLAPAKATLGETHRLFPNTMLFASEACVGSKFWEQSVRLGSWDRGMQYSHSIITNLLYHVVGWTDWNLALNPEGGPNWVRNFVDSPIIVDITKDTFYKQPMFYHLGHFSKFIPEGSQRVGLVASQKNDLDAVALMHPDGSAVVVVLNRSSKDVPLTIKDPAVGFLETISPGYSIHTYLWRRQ
# measurement-description: Glucocerebrosidase (Gcase) activation assay, 4-methylumbelliferyl-beta-D-glucopyranoside substrate, with saposin C
# Type: biochemical
# test-settings: read-out: Percent Gcase Activation 1 μM Test Compound
# Method: A 484 μL aliquot of a 1.0 mg/mL solution of phosphatidylserine (PS) (Sigma P7769) in chloroform was evaporated under a stream of nitrogen for 1 hour. The lipid film was dissolved over 4 minutes of vigorous vortexing in 40 mL of 176 mM K2HPO4/50 mM citric acid (pH 4.7) containing 7.5 μL of triton X-100, resulting in a mixed micellar preparation with a composition of 0.32 mM triton and 0.37 mol % PS. […]
property-name: activation at 1 µM

I am curious: what activation at 1 µM value has been reported for Cc1cccc2ncc(C(=O)NC3CCc4ccccc4C3)c(=O)n12 (stereo not drawn) ?
5 to 20%

I am curious: what activation at 1 µM value has been reported for Cc1csc2ncc(C(=O)Nc3ccc(F)cc3)c(=O)n12 ?
< 5%

I am curious: what activation at 1 µM value has been reported for Cc1ccc(NC(=O)c2cnc3scc(C)n3c2=O)cc1C ?
5 to 20%

I am curious: what activation at 1 µM value has been reported for Cc1cccc2ncc(C(=O)Nc3ccc(N4CCCCC4)cc3)c(=O)n12 ?
< 5%

I am curious: what activation at 1 µM value has been reported for Cc1ccc(NC(=O)c2cnc3scc(C)n3c2=O)cc1F ?
5 to 20%

I am curious: what activation at 1 µM value has been reported for Cc1cccc2ncc(C(=O)NC3CCC(c4ccccc4)CC3)c(=O)n12 (stereo not drawn) ?
> 20%

I am curious: what activation at 1 µM value has been reported for O=C(NC1CCOCC1)c1cnc2n(c1=O)CCS2 ?
5 to 20%

I am curious: what activation at 1 µM value has been reported for Cc1sc2ncc(C(=O)Nc3ccc(C(C)C)cc3)c(=O)n2c1C ?
< 5%

I am curious: what activation at 1 µM value has been reported for CCCCc1ccc(NC(=O)c2cnc3n(c2=O)CCS3)cc1 ?
> 20%

I am curious: what activation at 1 µM value has been reported for C#Cc1ccc(NC(=O)c2cnc3sccn3c2=O)cc1 ?
> 20%

I am curious: what activation at 1 µM value has been reported for Cc1csc2ncc(C(=O)Nc3ccc(C(C)C)cc3)c(=O)n12 ?
> 20%

I am curious: what activation at 1 µM value has been reported for CCc1ccc(CCNC(=O)c2cnc3sccn3c2=O)cc1 ?
5 to 20%
